Data credit: ChEMBL document CHEMBL5291721

Consider the following AC50 values measured on UniProt P23975.
Sequence (P23975 whole entry): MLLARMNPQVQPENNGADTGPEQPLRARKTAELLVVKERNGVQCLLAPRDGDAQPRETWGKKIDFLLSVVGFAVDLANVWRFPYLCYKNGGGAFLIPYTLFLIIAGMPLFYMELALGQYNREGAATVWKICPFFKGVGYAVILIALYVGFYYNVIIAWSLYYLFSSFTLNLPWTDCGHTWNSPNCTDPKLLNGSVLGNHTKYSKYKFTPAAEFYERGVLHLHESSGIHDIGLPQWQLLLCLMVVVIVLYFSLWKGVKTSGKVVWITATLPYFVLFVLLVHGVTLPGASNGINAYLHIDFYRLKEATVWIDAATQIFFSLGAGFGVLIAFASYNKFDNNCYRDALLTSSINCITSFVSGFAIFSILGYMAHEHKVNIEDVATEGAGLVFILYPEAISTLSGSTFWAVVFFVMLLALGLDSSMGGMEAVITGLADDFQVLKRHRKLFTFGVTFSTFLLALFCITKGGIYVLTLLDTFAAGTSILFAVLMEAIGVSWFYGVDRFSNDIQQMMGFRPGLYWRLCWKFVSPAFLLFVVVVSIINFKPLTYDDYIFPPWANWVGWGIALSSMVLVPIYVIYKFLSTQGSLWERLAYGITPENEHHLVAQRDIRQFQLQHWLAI

Recorded AC50, per entry:
MOLECULE	ENDPOINT	VALUE_REPORTED
CNC1(C)C2CCC(C2)C1(C)C (centres undefined)	AC50	> 10 µM
CC1=C(/C=C/C(C)=C/C=C/C(C)=C/C(=O)Oc2c(C)c(C)c3c(c2C)CCC(C)(CCCC(C)CCCC(C)CCCC(C)C)O3)C(C)(C)CCC1 (centres undefined)	AC50	> 30 µM

Query: Look up AC50: "O=C(O)c1nn(Cc2ccc(Cl)cc2Cl)c2ccccc12"
Result: > 30 µM

Query: Try this molecule too: "Cn1cnc2c(F)c(Nc3ccc(Br)cc3F)c(C(=O)NOCCO)cc21"
Result: > 30 µM
